Could you please report measured EC50 for the items listed next?
biological target: T1, human LTβR extracellular domain fused with an Fc fragment at the C-terminus (human, UniProt P36941 31-227); experiment: ELISA on coated target-Fc
T1 construct: extracellular domain; Bought; also called hLTβR; not shown: Fc fragment at the C-terminus
T1 sequence (P36941 31-227): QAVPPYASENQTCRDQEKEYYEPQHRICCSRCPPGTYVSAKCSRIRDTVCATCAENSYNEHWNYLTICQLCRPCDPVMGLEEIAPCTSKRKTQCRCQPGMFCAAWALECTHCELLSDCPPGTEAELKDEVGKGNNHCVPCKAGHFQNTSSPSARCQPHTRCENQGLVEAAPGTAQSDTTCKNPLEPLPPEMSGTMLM

// sample LIGHT-15 (ligand, Printed mutations: Q117E, E175K, K214E, L227T; Soluble protein carries an N-terminal His tag) DGPAGSWEQLIQERRSHEVNPAAHLTGANSSLTGSGGPLLWETELGLAFLRGLSYHDGALVVTKAGYYYIYSKVQLGGVGCPLGLASTITHGLYKRTPRYPKELELLVSQQSPCGRATSSSRVWWDSSFLGGVVHLEAGEEVVVRVLDERLVRTRDGTRSYFGAFMV , its EC50 was 0.0748 µg/mL

Lab note: measured EC50 of LIGHT (74-240) (ligand, Soluble protein carries an N-terminal His tag; also called wild-type human LIGHT; LIGHT (74-240) (wt)) DGPAGSWEQLIQERRSHEVNPAAHLTGANSSLTGSGGPLLWETQLGLAFLRGLSYHDGALVVTKAGYYYIYSKVQLGGVGCPLGLASTITHGLYKRTPRYPEELELLVSQQSPCGRATSSSRVWWDSSFLGGVVHLEAGEKVVVRVLDERLVRLRDGTRSYFGAFMV was 0.22 µg/mL

Values were extracted from patent US20250361288A1.
